From: patent US20230137010A1

assay: physchem; conditions: organic solvent or mixture
Where a name gives a salt, the structure may show the parent alone.
Endpoint Label: solubility

In: Return value of solubility for input CN1CCc2cccc3c2[C@H]1Cc1ccc(O)c(O)c1-3 [APO-HCL, apomorphine hydrochloride hemihydrate] , no commentary.
Out: < 20 mg/mL

###

assay: physchem; details: ethyl formate, organic solvent or mixture
Structures can show the parent of a compound that is named as a salt.
Endpoint Label: solubility

In: Dear colleague, please send me the reported solubility for CN1CCc2cccc3c2[C@H]1Cc1ccc(O)c(O)c1-3 [APO-HCL, apomorphine hydrochloride hemihydrate] when you can.
Out: < 600 µg/mL

###

test: physchem; conditions: dichloromethane (DCM), organic solvent or mixture
Counter-ions that a name gives are not always drawn.
Endpoint Label: solubility

In: // fetch solubility given entry CN1CCc2cccc3c2[C@H]1Cc1ccc(O)c(O)c1-3 [APO-HCL, apomorphine hydrochloride hemihydrate]
Out: < 500 µg/mL

###

assay: physchem; conditions: dioxane, organic solvent or mixture
Counter-ions that a name gives are not always drawn.
Endpoint Label: solubility

In: Dear colleague, please send me the reported solubility for CN1CCc2cccc3c2[C@H]1Cc1ccc(O)c(O)c1-3 [APO-HCL, apomorphine hydrochloride hemihydrate] when you can.
Out: < 12.4 mg/mL

###

assay: physchem; conditions: aqueous polyvinyl alcohol (PVA) solution, pH 8.5, aqueous with cosolvent or surfactant or cyclodextrin
Where a name gives a salt, the structure may show the parent alone.
Endpoint Label: solubility

In: Note down solubility recorded for CN1CCc2cccc3c2[C@H]1Cc1ccc(O)c(O)c1-3 [APO-HCL, apomorphine hydrochloride hemihydrate]
Out: < 1000 µg/mL

###

assay: physchem; details: N-methyl pyrrolidone (NMP), organic solvent or mixture
Where a name gives a salt, the structure may show the parent alone.
Endpoint Label: solubility
Include the unit right after the number.

In: Indicate its recorded solubility; the compound in question is CN1CCc2cccc3c2[C@H]1Cc1ccc(O)c(O)c1-3 [APO-HCL, apomorphine hydrochloride hemihydrate]
Out: 540 mg/mL

###

assay: physchem; conditions: acetone, organic solvent or mixture
Structures can show the parent of a compound that is named as a salt.
Endpoint Label: solubility

In: Retrieve solubility measured for CN1CCc2cccc3c2[C@H]1Cc1ccc(O)c(O)c1-3 [APO-HCL, apomorphine hydrochloride hemihydrate] and print it.
Out: < 400 µg/mL

###

assay: physchem; settings: diethyl ether, organic solvent or mixture
Where a name gives a salt, the structure may show the parent alone.
Endpoint Label: solubility

In: Please report the measured solubility for CN1CCc2cccc3c2[C@H]1Cc1ccc(O)c(O)c1-3 [APO-HCL, apomorphine hydrochloride hemihydrate]
Out: < 13.7 mg/mL

###

assay: physchem; settings: aqueous polyvinyl alcohol (PVA) solution, pH 8, aqueous with cosolvent or surfactant or cyclodextrin
Counter-ions that a name gives are not always drawn.
Endpoint Label: solubility

In: Using known records, supply solubility for CN1CCc2cccc3c2[C@H]1Cc1ccc(O)c(O)c1-3 [APO-HCL, apomorphine hydrochloride hemihydrate]
Out: < 1000 µg/mL

###

assay: physchem; conditions: ethyl acetate, organic solvent or mixture
Structures can show the parent of a compound that is named as a salt.
Endpoint Label: solubility

In: For the compound CN1CCc2cccc3c2[C@H]1Cc1ccc(O)c(O)c1-3 [APO-HCL, apomorphine hydrochloride hemihydrate] , give its measured solubility value.
Out: < 400 µg/mL

###

test: physchem; settings: toluene, organic solvent or mixture
Counter-ions that a name gives are not always drawn.
Endpoint Label: solubility

In: Name the recorded solubility of the item CN1CCc2cccc3c2[C@H]1Cc1ccc(O)c(O)c1-3 [APO-HCL, apomorphine hydrochloride hemihydrate] in your answer.
Out: < 12.3 mg/mL

###

assay: physchem; settings: ethanol, organic solvent or mixture
Where a name gives a salt, the structure may show the parent alone.
Endpoint Label: solubility

In: Tell me measured solubility for CN1CCc2cccc3c2[C@H]1Cc1ccc(O)c(O)c1-3 [APO-HCL, apomorphine hydrochloride hemihydrate] please.
Out: < 12.7 mg/mL

###

assay: physchem; conditions: dimethyl sulfoxide (DMSO), organic solvent or mixture
Counter-ions that a name gives are not always drawn.
Endpoint Label: solubility (mg/mL)
Return type: number; implicit unit mg/mL.

In: Input CN1CCc2cccc3c2[C@H]1Cc1ccc(O)c(O)c1-3 [APO-HCL, apomorphine hydrochloride hemihydrate] , output reported solubility.
Out: 514

###

assay: physchem; conditions: acetic acid, organic solvent or mixture
Where a name gives a salt, the structure may show the parent alone.
Endpoint Label: solubility

In: For the compound CN1CCc2cccc3c2[C@H]1Cc1ccc(O)c(O)c1-3 [APO-HCL, apomorphine hydrochloride hemihydrate] , report solubility.
Out: < 2700 µg/mL

###

assay: physchem; settings: dimethyl formamide (DMF), organic solvent or mixture
Counter-ions that a name gives are not always drawn.
Endpoint Label: solubility (mg/mL)
Give the quantity in mg/mL, number only.

In: Query solubility for CN1CCc2cccc3c2[C@H]1Cc1ccc(O)c(O)c1-3 [APO-HCL, apomorphine hydrochloride hemihydrate]
Out: 508

###

assay: physchem; details: benzyl alcohol, organic solvent or mixture
Counter-ions that a name gives are not always drawn.
Endpoint Label: solubility
A bare number is not enough; add the unit after it.

In: Give solubility for the following compound: CN1CCc2cccc3c2[C@H]1Cc1ccc(O)c(O)c1-3 [APO-HCL, apomorphine hydrochloride hemihydrate]
Out: 51 mg/mL

###

assay: physchem; conditions: THF, organic solvent or mixture
Structures can show the parent of a compound that is named as a salt.
Endpoint Label: solubility

In: Please report the measured solubility for CN1CCc2cccc3c2[C@H]1Cc1ccc(O)c(O)c1-3 [APO-HCL, apomorphine hydrochloride hemihydrate]
Out: < 13.3 mg/mL

###

assay: physchem; conditions: aqueous polyvinyl alcohol (PVA) solution, aqueous with cosolvent or surfactant or cyclodextrin
Where a name gives a salt, the structure may show the parent alone.
Endpoint Label: solubility

In: Indicate the recorded solubility value for this compound: CN1CCc2cccc3c2[C@H]1Cc1ccc(O)c(O)c1-3 [APO-HCL, apomorphine hydrochloride hemihydrate]
Out: < 300 µg/mL
